- Test system: GST-human KRas166 (G12V) GPPNHP (Homo sapiens, UniProt P01116, G12V)
- Construct: made in house; host or cells: E. coli C41(DE3)
- Method notes: KRas small-molecule screening by SPR (Biacore T200)
- Assay type: binding
- Assay context: compound 100 uM, 5% DMSO buffer; immobilised GST-KRas166 (G12V) GPPNHP
Metric: SPR Response Units (Response Units)
Output spec: scalar in Response Units, unitless text.

**Query** So what does the record say about SPR Response Units for c1ccc(CN2CCN(c3cccc4c3OCCO4)CC2)cc1 [Example 71] ?
**Result** 14

**Query** Repeat for the following compound: CN1CCN(Cc2ccc(C(=O)NCC3COc4cccc(-c5cn(Cc6ccccc6)cn5)c4O3)o2)CC1 (centres unmarked) [Example 138]
**Result** 238

**Query** Repeat for the following compound: COc1nc(-c2cccc3c2OCCO3)ccc1Nc1cccc(CN2CCCC2)c1 [Example 60]
**Result** 108

**Query** Repeat for the following compound: COc1cc(N)cc(-c2cccc3c2O[C@H](CNC(=O)c2ccc(CN4CCN(C)CC4)o2)CO3)n1 [Example 114]
**Result** 23

**Query** Repeat for the following compound: CN(C)Cc1cccc(CN2CCN(c3cccc4c3OCCO4)CC2)c1 [Example 157]
**Result** 7

**Query** Repeat for the following compound: COc1nc(-c2cccc3c2OCCO3)ccc1Nc1cccc(CNCC2CCC(=O)N2)c1 (centres unmarked) [Example 192]
**Result** 321

**Query** Repeat for the following compound: COc1nc(-c2cccc3c2OCCO3)ccc1NC1CCN(C)CC1 [Example 98]
**Result** 21

**Query** Repeat for the following compound: COc1nc(-c2cccc3c2OCCO3)ccc1Nc1cccc(CNCc2cc[nH]n2)c1 [Example 209]
**Result** 310

Data provenance: patent US12024506B2
